B1: FADS1 (parent)
chain: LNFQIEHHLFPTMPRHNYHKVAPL

variants of: B1; assay: protein stability index of a GFP-peptide fusion (GPS, HEK-293T) (PSI 1-6); higher = more stable; conditions: c terminus: a fixed tail appended;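 also: lentivirally expressed fusions sorted by FACS into six bins by GFP to DsRed ratio, PSI derived from sequencing read proportions per bin multiplied by bin number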
parameter.measured: protein stability index

[[record]]
ordered_residues = "LNFQIEHHLFPYMPRHNYHKVAPL"
parameter_measured = "protein stability index"
measured_value = 2.5

[[record]]
ordered_residues = "LNFQIEHHLFPTMPRHNYHKHAPL"
parameter_measured = "protein stability index"
measured_value = 1.92

[[record]]
ordered_residues = "LNFQIEHHLFPTMPRHNYHKVAPD"
parameter_measured = "protein stability index"
measured_value = 2.03

[[record]]
ordered_residues = "LCFQIEHHLFPTMPRHNYHKVAPL"
parameter_measured = "protein stability index"
measured_value = 1.98

[[record]]
ordered_residues = "LNFQIEHHLFPGMPRHNYHKVAPL"
parameter_measured = "protein stability index"
measured_value = 1.47

[[record]]
ordered_residues = "LNFQIEHHLFPIMPRHNYHKVAPL"
parameter_measured = "protein stability index"
measured_value = 2.5

[[record]]
ordered_residues = "LNFVIEHHLFPTMPRHNYHKVAPL"
parameter_measured = "protein stability index"
measured_value = 3.42

[[record]]
ordered_residues = "LNFQIEHHLFPTMSRHNYHKVAPL"
parameter_measured = "protein stability index"
measured_value = 2.71

[[record]]
ordered_residues = "LNFQIFHHLFPTMPRHNYHKVAPL"
parameter_measured = "protein stability index"
measured_value = 3.4

[[record]]
ordered_residues = "LNFQIEHHLFPTMPRHNYHKVAKL"
parameter_measured = "protein stability index"
measured_value = 1.54

[[record]]
ordered_residues = "LPFQIEHHLFPTMPRHNYHKVAPL"
parameter_measured = "protein stability index"
measured_value = 1.65

[[record]]
ordered_residues = "LNFQIEHHLFPTMRRHNYHKVAPL"
parameter_measured = "protein stability index"
measured_value = 1.76

[[record]]
ordered_residues = "LNFQIEHHLFPTMPRHNYHIVAPL"
parameter_measured = "protein stability index"
measured_value = 2.65

[[record]]
ordered_residues = "LNFQIEKHLFPTMPRHNYHKVAPL"
parameter_measured = "protein stability index"
measured_value = 2.75

[[record]]
ordered_residues = "LNFQIEHHDFPTMPRHNYHKVAPL"
parameter_measured = "protein stability index"
measured_value = 2.04

[[record]]
ordered_residues = "LNFQILHHLFPTMPRHNYHKVAPL"
parameter_measured = "protein stability index"
measured_value = 2.27

[[record]]
ordered_residues = "LNFYIEHHLFPTMPRHNYHKVAPL"
parameter_measured = "protein stability index"
measured_value = 3.01

[[record]]
ordered_residues = "LNFQIEHHLFPTMPRYNYHKVAPL"
parameter_measured = "protein stability index"
measured_value = 3.52

[[record]]
ordered_residues = "LNFQIEHHLFHTMPRHNYHKVAPL"
parameter_measured = "protein stability index"
measured_value = 3.14

[[record]]
ordered_residues = "LGFQIEHHLFPTMPRHNYHKVAPL"
parameter_measured = "protein stability index"
measured_value = 1.24

[[record]]
ordered_residues = "LNFQIEHHLFPQMPRHNYHKVAPL"
parameter_measured = "protein stability index"
measured_value = 1.99

[[record]]
ordered_residues = "LNFQIEHHFFPTMPRHNYHKVAPL"
parameter_measured = "protein stability index"
measured_value = 3.13

[[record]]
ordered_residues = "LNFQIEHHLFPTMPRHGYHKVAPL"
parameter_measured = "protein stability index"
measured_value = 1.27

[[record]]
ordered_residues = "LNFQIEHHLFPTMPLHNYHKVAPL"
parameter_measured = "protein stability index"
measured_value = 2.42

[[record]]
ordered_residues = "LNFQIEHHLRPTMPRHNYHKVAPL"
parameter_measured = "protein stability index"
measured_value = 1.87

[[record]]
ordered_residues = "LNFQIEHHLMPTMPRHNYHKVAPL"
parameter_measured = "protein stability index"
measured_value = 1.37

[[record]]
ordered_residues = "LNFQIEHDLFPTMPRHNYHKVAPL"
parameter_measured = "protein stability index"
measured_value = 2.14

[[record]]
ordered_residues = "LNFQIEDHLFPTMPRHNYHKVAPL"
parameter_measured = "protein stability index"
measured_value = 1.93

[[record]]
ordered_residues = "LNFQIEHHLFPTMPRHNYHKVAPK"
parameter_measured = "protein stability index"
measured_value = 1.79

[[record]]
ordered_residues = "LNFQIEHHLFPTMPRHNYSKVAPL"
parameter_measured = "protein stability index"
measured_value = 2.35

[[record]]
ordered_residues = "LNFQIEHHLFPTMPRHNYHKVAWL"
parameter_measured = "protein stability index"
measured_value = 2.27

[[record]]
ordered_residues = "LNFQIESHLFPTMPRHNYHKVAPL"
parameter_measured = "protein stability index"
measured_value = 1.81

[[record]]
ordered_residues = "LNFQIEHHLFPTMPRHNYHNVAPL"
parameter_measured = "protein stability index"
measured_value = 2.58

[[record]]
ordered_residues = "LNFQIEHKLFPTMPRHNYHKVAPL"
parameter_measured = "protein stability index"
measured_value = 1.93

[[record]]
ordered_residues = "LNFQIEIHLFPTMPRHNYHKVAPL"
parameter_measured = "protein stability index"
measured_value = 3.32

[[record]]
ordered_residues = "LNFQIEHHLFPTMPRHNYHKVAML"
parameter_measured = "protein stability index"
measured_value = 2.06

[[record]]
ordered_residues = "LNFQIEHHLFPTMPRHNYHKVTPL"
parameter_measured = "protein stability index"
measured_value = 2.09

[[record]]
ordered_residues = "LNFQIWHHLFPTMPRHNYHKVAPL"
parameter_measured = "protein stability index"
measured_value = 2.57

[[record]]
ordered_residues = "LNFQIPHHLFPTMPRHNYHKVAPL"
parameter_measured = "protein stability index"
measured_value = 2.11

[[record]]
ordered_residues = "LNFQIVHHLFPTMPRHNYHKVAPL"
parameter_measured = "protein stability index"
measured_value = 3.6

[[record]]
ordered_residues = "LNFQIEHHLEPTMPRHNYHKVAPL"
parameter_measured = "protein stability index"
measured_value = 1.24

[[record]]
ordered_residues = "LNFQIEAHLFPTMPRHNYHKVAPL"
parameter_measured = "protein stability index"
measured_value = 2.31

[[record]]
ordered_residues = "LNFQIEHHLFPTMPRHNYAKVAPL"
parameter_measured = "protein stability index"
measured_value = 2.85

[[record]]
ordered_residues = "INFQIEHHLFPTMPRHNYHKVAPL"
parameter_measured = "protein stability index"
measured_value = 2.2

[[record]]
ordered_residues = "LNFQIEHHKFPTMPRHNYHKVAPL"
parameter_measured = "protein stability index"
measured_value = 1.36

[[record]]
ordered_residues = "LNFQIEHHLFPTMPRHNYHKDAPL"
parameter_measured = "protein stability index"
measured_value = 2.41

[[record]]
ordered_residues = "LNFQIEHHLFPTFPRHNYHKVAPL"
parameter_measured = "protein stability index"
measured_value = 1.97

[[record]]
ordered_residues = "LNFQIEQHLFPTMPRHNYHKVAPL"
parameter_measured = "protein stability index"
measured_value = 2.45

[[record]]
ordered_residues = "LNFQIEHPLFPTMPRHNYHKVAPL"
parameter_measured = "protein stability index"
measured_value = 2.11

[[record]]
ordered_residues = "LNFQIEHHVFPTMPRHNYHKVAPL"
parameter_measured = "protein stability index"
measured_value = 2.37

[[record]]
ordered_residues = "LNFQIEHHLHPTMPRHNYHKVAPL"
parameter_measured = "protein stability index"
measured_value = 3.04

[[record]]
ordered_residues = "LNFQIEHHLFPTCPRHNYHKVAPL"
parameter_measured = "protein stability index"
measured_value = 1.75

[[record]]
ordered_residues = "LNWQIEHHLFPTMPRHNYHKVAPL"
parameter_measured = "protein stability index"
measured_value = 1.92

[[record]]
ordered_residues = "LNFQIEHHLFPTMPRHIYHKVAPL"
parameter_measured = "protein stability index"
measured_value = 1.5

[[record]]
ordered_residues = "LNFQIEHCLFPTMPRHNYHKVAPL"
parameter_measured = "protein stability index"
measured_value = 2.41

[[record]]
ordered_residues = "LNKQIEHHLFPTMPRHNYHKVAPL"
parameter_measured = "protein stability index"
measured_value = 1.88

[[record]]
ordered_residues = "LNFQIEHHLFPTMPCHNYHKVAPL"
parameter_measured = "protein stability index"
measured_value = 3.14

[[record]]
ordered_residues = "LNFQIEHHLFPTMPRHNWHKVAPL"
parameter_measured = "protein stability index"
measured_value = 2.78

[[record]]
ordered_residues = "LNFQIEHHLFPTMPRHNYGKVAPL"
parameter_measured = "protein stability index"
measured_value = 3.11

[[record]]
ordered_residues = "LNFQIEHSLFPTMPRHNYHKVAPL"
parameter_measured = "protein stability index"
measured_value = 2.12

[[record]]
ordered_residues = "LNFQIEHHLFPTMPRHSYHKVAPL"
parameter_measured = "protein stability index"
measured_value = 2.02

[[record]]
ordered_residues = "LNFQIEHHLFWTMPRHNYHKVAPL"
parameter_measured = "protein stability index"
measured_value = 3.17

[[record]]
ordered_residues = "LNFQIQHHLFPTMPRHNYHKVAPL"
parameter_measured = "protein stability index"
measured_value = 2.38

[[record]]
ordered_residues = "LNFQIEHHLFPTMPRLNYHKVAPL"
parameter_measured = "protein stability index"
measured_value = 1.96

[[record]]
ordered_residues = "LNSQIEHHLFPTMPRHNYHKVAPL"
parameter_measured = "protein stability index"
measured_value = 2.15

[[record]]
ordered_residues = "LNGQIEHHLFPTMPRHNYHKVAPL"
parameter_measured = "protein stability index"
measured_value = 2.42

[[record]]
ordered_residues = "LNFQIEHHLFPTMPRHCYHKVAPL"
parameter_measured = "protein stability index"
measured_value = 3.44

[[record]]
ordered_residues = "LNFQIEHGLFPTMPRHNYHKVAPL"
parameter_measured = "protein stability index"
measured_value = 1.58

[[record]]
ordered_residues = "LYFQIEHHLFPTMPRHNYHKVAPL"
parameter_measured = "protein stability index"
measured_value = 1.77

[[record]]
ordered_residues = "LNFQIEHHLFPTMPRHNGHKVAPL"
parameter_measured = "protein stability index"
measured_value = 1.81

[[record]]
ordered_residues = "LNFQIEHHLFPTMPRHNYHKVARL"
parameter_measured = "protein stability index"
measured_value = 1.69

[[record]]
ordered_residues = "ANFQIEHHLFPTMPRHNYHKVAPL"
parameter_measured = "protein stability index"
measured_value = 1.91

[[record]]
ordered_residues = "LNFQIEHHLFPTSPRHNYHKVAPL"
parameter_measured = "protein stability index"
measured_value = 2.59

[[record]]
ordered_residues = "KNFQIEHHLFPTMPRHNYHKVAPL"
parameter_measured = "protein stability index"
measured_value = 2.03

[[record]]
ordered_residues = "LNFQIEHHLFPTLPRHNYHKVAPL"
parameter_measured = "protein stability index"
measured_value = 1.62

[[record]]
ordered_residues = "LNFQIEEHLFPTMPRHNYHKVAPL"
parameter_measured = "protein stability index"
measured_value = 1.76

[[record]]
ordered_residues = "LEFQIEHHLFPTMPRHNYHKVAPL"
parameter_measured = "protein stability index"
measured_value = 2.42

[[record]]
ordered_residues = "LNFQIEHHLFPTMPRHNYHKVAPA"
parameter_measured = "protein stability index"
measured_value = 1.71

[[record]]
ordered_residues = "MNFQIEHHLFPTMPRHNYHKVAPL"
parameter_measured = "protein stability index"
measured_value = 1.63

[[record]]
ordered_residues = "DNFQIEHHLFPTMPRHNYHKVAPL"
parameter_measured = "protein stability index"
measured_value = 1.31

[[record]]
ordered_residues = "LNFQIEHHLFATMPRHNYHKVAPL"
parameter_measured = "protein stability index"
measured_value = 2.35

[[record]]
ordered_residues = "LNFQIEHHLFQTMPRHNYHKVAPL"
parameter_measured = "protein stability index"
measured_value = 2.73

[[record]]
ordered_residues = "LNFQIEHHLFPTMVRHNYHKVAPL"
parameter_measured = "protein stability index"
measured_value = 2.38

[[record]]
ordered_residues = "LNFQIKHHLFPTMPRHNYHKVAPL"
parameter_measured = "protein stability index"
measured_value = 2.21

[[record]]
ordered_residues = "LNFDIEHHLFPTMPRHNYHKVAPL"
parameter_measured = "protein stability index"
measured_value = 1.66

[[record]]
ordered_residues = "LNFQIEHRLFPTMPRHNYHKVAPL"
parameter_measured = "protein stability index"
measured_value = 1.74

[[record]]
ordered_residues = "LNFQIEHHLFPTMARHNYHKVAPL"
parameter_measured = "protein stability index"
measured_value = 2.64

[[record]]
ordered_residues = "LNFQIEHHLFPTRPRHNYHKVAPL"
parameter_measured = "protein stability index"
measured_value = 1.4

[[record]]
ordered_residues = "LNFQIEHHLFPTMPRHNYHKAAPL"
parameter_measured = "protein stability index"
measured_value = 1.32


Where do these numbers come from? They come from the supplement of paper PMC10567573.
